Biological target: MAGL (Mus musculus, UniProt O35678)
Construct: Proteomes (mouse brain membrane fraction or cell lysates); from tissue; host or cells: mouse brain membrane fraction (or cell lysates, not specified)
Sequence (O35678 whole entry): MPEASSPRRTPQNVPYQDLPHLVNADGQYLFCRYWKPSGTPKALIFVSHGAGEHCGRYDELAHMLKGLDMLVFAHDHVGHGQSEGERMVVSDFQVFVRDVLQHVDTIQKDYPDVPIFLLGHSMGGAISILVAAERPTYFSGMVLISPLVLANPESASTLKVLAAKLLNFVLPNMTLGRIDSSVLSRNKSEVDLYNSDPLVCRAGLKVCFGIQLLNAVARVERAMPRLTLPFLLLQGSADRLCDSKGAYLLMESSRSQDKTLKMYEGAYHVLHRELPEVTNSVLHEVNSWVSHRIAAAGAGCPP
Assay: In vitro competitive activity-based protein profiling (gel-based, FP-Rh or HT-01 probe)
Type: biochemical
Conditions: 10 μM inhibitor
Procedure: In Vitro Competitive Activity-Based Protein Profiling. Proteomes (mouse brain membrane fraction or cell lysates) (50 μL, 1.0 mg/mL total protein concentration) were preincubated with varying concentrations of inhibitors at 37° C. […] Following gel imaging, serine hydrolase activity was determined by measuring fluorescent intensity of gel bands corresponding to MAGL, ABHD6, FAAH, and PLA2G7 using ImageJ 1.43u software.

# structure_smiles, target_of_assay, inhibition at 10 µM
records = [
    ("CC(C)c1cnn(C(=O)N2CCN(Cc3c(N4CCCC4)cccc3C(F)(F)F)CC2)c1", "MAGL (Mus musculus, UniProt O35678)", "> 75%"),
    ("Cc1cnn(C(=O)N(C)CCN(C)C(=O)c2ccccc2)c1", "MAGL (Mus musculus, UniProt O35678)", "< 25%"),
    ("CS(=O)(=O)N1CCN(C(=O)n2cc(C(F)(F)F)cn2)CC1", "MAGL (Mus musculus, UniProt O35678)", "25 to 75%"),
    ("Cc1cnn(C(=O)N2CCN(Cc3ccc(-c4ccccc4)cc3)CC2)c1", "MAGL (Mus musculus, UniProt O35678)", "> 75%"),
    ("COc1ccc(N2CCN(C(=O)n3cc(C(F)(F)F)cn3)CC2)cc1", "MAGL (Mus musculus, UniProt O35678)", "> 75%"),
    ("O=C(N1CCN(Cc2ccccc2)CC1)n1cc(C(F)(F)F)cn1", "MAGL (Mus musculus, UniProt O35678)", "> 75%"),
    ("CN1CCCN(C(=O)n2cc(Cl)cn2)CC1", "MAGL (Mus musculus, UniProt O35678)", "< 25%"),
    ("CC(=O)N1CCN(C(=O)n2cc(C(F)(F)F)cn2)CC1", "MAGL (Mus musculus, UniProt O35678)", "25 to 75%"),
    ("CS(=O)(=O)N1CCN(C(=O)n2cc(C#N)cn2)CC1", "MAGL (Mus musculus, UniProt O35678)", "25 to 75%"),
    ("O=C(c1cnn(C(=O)N2CCN(Cc3ccccn3)CC2)c1)N1CCCC1", "MAGL (Mus musculus, UniProt O35678)", "< 25%"),
    ("CN(CCN(C)S(C)(=O)=O)C(=O)n1cc(C#N)cn1", "MAGL (Mus musculus, UniProt O35678)", "< 25%"),
    ("O=C(NCCCc1ccccc1)n1cccn1", "MAGL (Mus musculus, UniProt O35678)", "< 25%"),
    ("O=C(Nc1ccc2ccccc2c1)n1cccn1", "MAGL (Mus musculus, UniProt O35678)", "> 75%"),
    ("O=C(N1CCN(C(c2ccc(Cl)cc2)c2ccc(Cl)cc2)CC1)n1cc(F)cn1", "MAGL (Mus musculus, UniProt O35678)", "> 75%"),
    ("COc1cc(-c2ccccc2)ccc1CN1CCN(C(=O)n2cc(C#N)cn2)CC1", "MAGL (Mus musculus, UniProt O35678)", "> 75%"),
    ("Cc1cc(-c2ccccc2)ccc1CN1CCN(C(=O)n2cc(C(=O)N3CCOCC3)cn2)CC1", "MAGL (Mus musculus, UniProt O35678)", "> 75%"),
    ("O=C(c1cnn(C(=O)N2CCN(C(c3ccc(Cl)cc3)c3ccc(Cl)cc3)CC2)c1)N1CCC1", "MAGL (Mus musculus, UniProt O35678)", "> 75%"),
    ("Cc1ccccc1-c1cnn(C(=O)N2CCN(C(c3ccc(Cl)cc3)c3ccc(Cl)cc3)CC2)c1", "MAGL (Mus musculus, UniProt O35678)", "25 to 75%"),
    ("O=C(c1cnn(C(=O)N2CCN(Cc3ccncn3)CC2)c1)N1CCCCC1", "MAGL (Mus musculus, UniProt O35678)", "< 25%"),
    ("O=C(c1cnn(C(=O)N2CCN(Cc3ccccn3)CC2)c1)N1CCC1", "MAGL (Mus musculus, UniProt O35678)", "< 25%"),
    ("O=C(c1cnn(C(=O)N2CCN(Cc3ccncn3)CC2)c1)N1CCOCC1", "MAGL (Mus musculus, UniProt O35678)", "25 to 75%"),
    ("CC(=O)N1CCCN(C(=O)n2cc(C(F)(F)F)cn2)CC1", "MAGL (Mus musculus, UniProt O35678)", "< 25%"),
    ("N#Cc1cnn(C(=O)NCc2ccc3ccccc3c2)c1", "MAGL (Mus musculus, UniProt O35678)", "25 to 75%"),
    ("O=C(N1CCCCC1)n1cccn1", "MAGL (Mus musculus, UniProt O35678)", "25 to 75%"),
    ("O=C(c1cnn(C(=O)N2CCN(Cc3ccc4c(c3)OCO4)CC2)c1)N1CCCCC1", "MAGL (Mus musculus, UniProt O35678)", "> 75%"),
    ("CC(=O)N1CCN(C(=O)n2cc(Cl)cn2)CC1", "MAGL (Mus musculus, UniProt O35678)", "< 25%"),
    ("O=C(N1CCN(Cc2ccc(N3CCCC3)cc2)CC1)n1cc(Cl)cn1", "MAGL (Mus musculus, UniProt O35678)", "> 75%"),
    ("O=C(c1ccccc1)N1CCCN(C(=O)n2cc(C(F)(F)F)cn2)CC1", "MAGL (Mus musculus, UniProt O35678)", "> 75%"),
    ("CC(=O)N1CCCN(C(=O)n2cc(C)cn2)CC1", "MAGL (Mus musculus, UniProt O35678)", "< 25%"),
    ("Cc1cnn(C(=O)NCCCCc2ccccc2)c1", "MAGL (Mus musculus, UniProt O35678)", "< 25%"),
    ("COc1cc(-c2ccccc2)ccc1CN1CCN(C(=O)n2cc(C(F)(F)F)cn2)CC1", "MAGL (Mus musculus, UniProt O35678)", "> 75%"),
    ("CN(Cc1cccc(-c2ccncc2)c1)C(=O)n1cc(C#N)cn1", "MAGL (Mus musculus, UniProt O35678)", "> 75%"),
    ("O=C(c1cnn(C(=O)N2CCN(Cc3ccncc3)CC2)c1)N1CCCCC1", "MAGL (Mus musculus, UniProt O35678)", "< 25%"),
    ("Cc1cnn(C(=O)Nc2ccc3ccccc3c2)c1", "MAGL (Mus musculus, UniProt O35678)", "> 75%"),
    ("N#Cc1cnn(C(=O)N2CCN(Cc3ccc(-c4ccccc4)cc3Cl)CC2)c1", "MAGL (Mus musculus, UniProt O35678)", "> 75%"),
    ("O=C(c1cnn(C(=O)N2CCN(Cc3cccnc3)CC2)c1)N1CCCCC1", "MAGL (Mus musculus, UniProt O35678)", "< 25%"),
    ("O=C(N1CCCC1)n1cc(-c2ccc(Cl)cc2)cn1", "MAGL (Mus musculus, UniProt O35678)", "< 25%"),
]
